read-out: Tissue Factor, F3 (gene 2152); assay: BSK_LPS_TissueFactor: BioMAP Diversity Plus: LPS Assay for Tissue Factor Biomarker Activity (AID 2283084); conditions: primary human HUVEC with PBMC; actives raise or lower the signal
The source made the active and inactive calls. How the source made its calls: active means hit-call score of the fitted dose curve at least 0.9, where 1 is the maximum; inactive means score below 0.9.
Return exactly one item of active, inactive

The following compounds have reported results that may help.
| Compound | Category label |
| --- | --- |
| CCN(CC)c1ccc2c(c1)Oc1cc(N(CC)CC)ccc1C21OC(=O)c2ccccc21 | active |
| Brc1nc2ccccc2s1 | inactive |
| O=C(F)C1(F)C(F)(F)C(F)(F)C(F)(F)C(F)(F)C1(F)F | inactive |
| CCN(CC)c1ccc(N=Nc2ccccc2)cc1 | inactive |
| O=S(=O)(Cl)C(F)(F)C(F)(F)C(F)(F)C(F)(F)C(F)(F)C(F)(F)C(F)(F)C(F)(F)F | inactive |
| OCCCCC(F)(F)C(F)(F)C(F)(F)C(F)(F)F | inactive |
| OC(O)C(F)(F)C(F)(F)F | inactive |
| OCC(O)CC(F)(F)C(F)(F)C(F)(F)C(F)(F)C(F)(F)C(F)(F)C(F)(F)C(F)(F)F (stereo unspecified) | inactive |

## Task Short answer needed: outcome of this test for Cc1cc(O)c(C(C)(C)C)cc1C(C)(C)C ?
## Result active

## Task Short answer needed: outcome of this test for O=C(O)C(F)(F)C(F)(F)C(F)(F)C(F)(F)C(F)(F)C(F)(F)C(F)F ?
## Result inactive

## Task Short answer needed: outcome of this test for CN(C(=O)C(F)(F)C(F)(F)C(F)(F)F)[Si](C)(C)C ?
## Result inactive

## Task Short answer needed: outcome of this test for Nc1cc([N+](=O)[O-])cc(Cl)c1O ?
## Result inactive

## Task Short answer needed: outcome of this test for CC(C)CCCC(C)CCO (stereo unspecified) ?
## Result inactive
